- Assay System: HIV-1 envelope glycoprotein gp120 of virus 7141 (HIV-1)
- Assay Name: cell-based or functional assay
Reported Endpoint: neutralization IC50 (µg/mL)
Entry rule: numbers only, all in µg/mL.

Ask: Look at this binder and give its reported neutralization IC50. 2.3.17-1 (antibody, human IgG1, kappa, V domains shown) VH: QVHLSQSGAAVTKPGASVRVSCEASGYNIRDYFIHWWRQAPGQGLQWVGWINPKTGQPNNPRQFQGRVSLTRHASWDFDTFSFYMDLKAVRSDDTAIYFCARQRSDYWDFDVWGSGTQVTVSS VL: DIQMTQSPSSLSARVGDTATITCQANGYLNWYQQRRGKAPKLLIYDGSKLERGVPARFSGRRWGQEYHLTINNLQPEDVATYFCQVYEFFGPGTRLDLKR
Reply: 31.3

Ask: // query neutralization IC50 value for entry 1.1.78-1 (antibody, human IgG1, kappa, V domains shown) VH: QVQLLQSGAAVTKPGASVRVSCEASGYNIRDYFIHWWRQAPGQGLQWVGWINPKTGQPNNPRQFQGRVSLTRHASWDFDTFSFYMDLKALRSDDTAVYFCARQRSDYWDFDVWGSGTQVTVSS VL: DIQMTQSPSSLSASVGDTATITCQANGYLNWYQQRRGKAPKLLIYDGSKLERGVPSRFSGRRWGQEYHLTINNLQPEDIATYFCQVYEFFGPGTRLDLKR
Reply: 29.5

Ask: Which neutralization IC50 reading was recorded for the binder 2.2.13-1 (antibody, human IgG1, kappa, V domains shown) VH: QVHLSQSGAAVTKPGASVRVSCEASGYKIRDHFIHWWRQAPGQGLQWVGWINPKTGQPNNPRQFQGRVSLTRHASWDFDTFSFYMDLKAVRSDDTAIYFCARQRSDYWDFDVWGSGTQVTVSS VL: DIQMTQSPSSLSARVGDRATITCQANGYLNWYQQRRGKAPKLLIYDGSKLERGVPARFSGSRWGQEYILTISSLQPEDVATYFCQVYEFFGPGTRLDLKR ?
Reply: 3.8

Ask: What value of measured neutralization IC50 is listed for 3.1.7-1 (antibody, human IgG1, kappa, V domains shown) VH: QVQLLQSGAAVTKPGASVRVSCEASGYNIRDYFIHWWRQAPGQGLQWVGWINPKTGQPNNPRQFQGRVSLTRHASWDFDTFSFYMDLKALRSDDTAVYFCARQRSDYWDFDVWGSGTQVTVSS VL: DIQMTQSPSSLSARVGDRATITCQANGYLNWYQQRRGKAPKLLIYDGSKLERGVPARFSGSRWGQEYTLTISSLQPEDVATYFCQVYEFFGPGTRLDLKR ?
Reply: 5.65
